experiment: Single dose pharmacokinetics study, oral and intravenous, blood and urine; format: in vivo; details: ICR (CD-1 IGS), mouse, in vivo, po, 20 mg/kg
Parameter Measured: AUC(0-inf) (ng·h/mL)
Hi! Could you send only the number? It should be in ng·h/mL, unit omitted.

## Input Look up AUC(0-inf) of C[C@H]1COc2c(N3CC[C@@H](Nc4ncccn4)C3)c(F)cc3c(=O)c(C(=O)O)cn1c23 [KSN-L22] and report it.
## Output 13200

----------
test: Single dose pharmacokinetics study, oral and intravenous, blood and urine; format: in vivo; details: ICR (CD-1 IGS), in vivo; iv, 5.0 mg/kg, mouse, blood, Composite Mean; read-out: Co/Cmax
Parameter Measured: Cmax (ng/mL)
Give a bare numeral; the unit ng/mL is implied.

## Input Supply Cmax value. Item: C[C@H]1COc2c(N3CCN(C)CC3)c(F)cc3c(=O)c(C(=O)O)cn1c23 [Levofloxacin, levofloxacin]
## Output 3890
